Experiment: NCI Yeast Anticancer Drug Screen. Data for the sgs1 mgt1 strain (AID 161);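 further: 0% = growth of cultures given vehicle only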
Details: S. cerevisiae sgs1 mgt1 strain, at 50.0 µM (retest, dose inferred, filed as 5.0)
Compounds without any hit were thinned out: in the full panel of roughly 79,000, 15% have a hit. Activity calls are given as the source filed them. No stated cut-off is given here; in the data, active means growth inhibition above about 70%; inactive means the rest.
Your reply should match one of these outcome classes. active, inactive

Solved cases below.
Nc1ccc(S(=O)(=O)Nc2nc3ccccc3nc2N2CCCCC2)cc1 ... active
COC(=O)C1(C)CCc2c(ccc3cccc(OC)c23)C1=O (centres undefined) ... active
Nc1nc(SCc2ccccc2)c2ncn(CCCl)c2n1 ... inactive

Request: Which outcome was assigned to COc1ccc2[nH]c3ccc4cc[n+](CCN5CCC(C6CCN(CC[n+]7ccc8ccc9[nH]c%10ccc(OC)cc%10c9c8c7)CC6)CC5)cc4c3c2c1 in this test?
Result: active

Request: GET /call?item= C=CCOc1ccc(C2(c3ccc(OCC=C)cc3)C(=O)Nc3ccccc32)cc1 returns the recorded outcome of this test.
Result: active

Request: Dear all, I need the recorded test outcome for CCOC(=O)c1sc(N/N=C2\NC(=O)/C(=C/c3ccc([N+](=O)[O-])cc3)S2)nc1C , thank you.
Result: active

Request: Outcome logged for C[n+]1c(-c2ccc(/C=N/NC(=O)c3ccc(C(=O)N/N=C/c4ccc(-c5cn6ccccc6[n+]5C)cc4)nc3)cc2)cn2ccccc21 in this assay:
Result: active

Request: Can you look up the reported call for Clc1ccc(COC(CN2CCOCC2)c2ccccc2)c(Cl)c1 (centres undefined) for me?
Result: active

Request: Name the outcome recorded for COc1ccc(SC2=C(N(C)C(C)=O)C(=O)c3ccccc3C2=O)cc1 in the assay.
Result: active

Request: Can you look up the reported call for c1ccc2c(CCc3ccncc3)cccc2c1 for me?
Result: inactive

Request: Would you mind telling me which call this test gave CS(=O)(=O)OCCN(CCOS(C)(=O)=O)c1ccc(C=Nc2ccc(-c3csc(-c4ccc(Br)cc4)n3)cc2)cc1 ?
Result: active

---

Assay: NCI Yeast Anticancer Drug Screen. Data for the rad50 strain (AID 155);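 further: 0% = growth of vehicle-only cultures of the same strain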
Settings: S. cerevisiae rad50 strain growth inhibition; at 50.0 µM
Compounds without any hit were thinned out: in the full panel of roughly 79,000, 15% have a hit. Active and inactive are the calls of the source. Cut-off read from the data, not from the text of the source: active = growth inhibition above about 70%; inactive = the rest.
Outcomes you can answer with include only these: active, inactive

For orientation, consider the following solved cases.
O=C(C(Cl)Cl)N(O)c1ccccc1OCc1ccccc1 ... active
COc1ccc(/C=N/Nc2cc(C)nc3cc4c(cc23)OCO4)c2ccccc12 ... active
CCCN(CCC)C(=O)C(C)C ... inactive
Cc1ccc(N=Nc2c(-c3ccccc3)nn(C(=S)S)c2-c2ccccc2)cc1 ... inactive
CCCCOC(=O)c1nc(N(CC2CCCCC2)C(=O)NC)sc1NC(=O)NC ... inactive
CN(C)c1ccc(C=Nc2cncc3ccccc23)cc1 ... inactive
O=C(CC(C(=O)O)c1c[nH]c2ccccc12)c1ccccc1 (stereo unspecified) ... inactive
O=C1CC(c2ccccc2Cl)C(c2ccccc2Cl)C1 (stereo unspecified) ... active
O=C(c1ccccc1)c1ccc2cccc(O)c2n1 ... active
C[Si](C)(CCC(=O)O)O[Si](C)(C)CCC(=O)O ... active

Request: Fill in: this test's call for CN(NC(=O)/C(=C/c1cc(Cl)cc(Cl)c1O)NC(=O)c1ccccc1)c1cnn(-c2ccccc2)c(=O)c1Cl is ___
Result: inactive

---

A collection of compounds and their measured growth inhibition
Assay: NCI Yeast Anticancer Drug Screen. Data for the bub3 strain (AID 167)
Details: S. cerevisiae bub3 mutant strain, at 50.0 µM, hits give high values
The panel holds about 79,000 compounds, 15% with a hit somewhere; the sample as a whole holds those more often. Where a SMILES comes first, the peptide text is derived from it. The star is where a group is joined. Cbz = O=C(OCc1ccccc1)*; Boc = CC(C)(C)OC(=O)*; OSu = O=C1CCC(=O)N1O*; Bn = c1ccc(C*)cc1
The answer is to be given in %; state only the numeric part.

Solved entries (count: 6):
CN(c1ccc(C(N)=O)cc1)c1c(O)c2ccccc2[nH]c1=O ... 23.5
CC(C)(C)C1CCC2c3c([nH]c4ccccc34)C3C(=O)N(c4ccc(C(=O)O)cc4)C(=O)C3C2C1 (centres undefined) ... 99.3
O=C1Oc2ccccc2C(=O)/C1=C/N1C(=O)/C(=C/c2ccc3c(c2)OCO3)SC1=S ... 66.3
CC1CCN(c2cc(-c3cc4ccccc4o3)oc(=O)c2C#N)CC1 ... 39.9
Cc1cc(I)ccc1NC(=S)Nc1ccccc1F ... 95.1
COc1ccc2[nH]cc(C(=O)O)c2c1 ... 79.8

Request: Reported growth inhibition, compound COc1ccccc1/C=C/c1ccnc2ccccc12 : ____
Result: 84.8

Request: Requested field: growth inhibition. Item: CCCCCCCCCCCC(N)c1ccccc1 (centres undefined)
Result: 99.2

Request: Given CC(C)(C)OC(=O)NC(Cc1ccc(OCc2ccccc2)cc1)C(=O)NC(CCCCNC(=O)OCc1ccccc1)C(=O)ON1C(=O)CCC1=O (centres undefined) (Boc-Tyr(Bn)-Lys(Cbz)-OSu; configuration not given here) , state its recorded growth inhibition.
Result: 62.5

Request: Could you share which growth inhibition value was measured for CCO/N=C1\CCCCC1SS(=O)(=O)O (centres undefined) ?
Result: 8.2

Request: Data request, read-out growth inhibition, for COP(=O)(OC)OCC1OC(n2cnc3c(N)ncnc32)C(O)C1O (centres undefined)
Result: 96.2

Request: Any idea what growth inhibition was measured for N#CSc1ccc(O)c2ccccc12 ?
Result: 90.3

Request: // growth inhibition lookup, key: Cc1cccc(-c2csc(N)n2)c1
Result: 31.1

Request: Give its growth inhibition value. Item: CCCCCCc1ccc(O)cc1O
Result: 99.5

Request: If you can, please state the reported growth inhibition value of CCOC(=O)c1c[nH]cc1-c1cn(S(=O)(=O)c2ccccc2)cc1C .
Result: 44

Request: // query growth inhibition value for entry CN(C)NC(=S)C(F)(F)F
Result: 37.6

Request: Please look up its growth inhibition: CC1=NOC(=O)/C1=C/c1ccc(Cl)c(Cl)c1
Result: 33.9

Request: Would you mind telling me what growth inhibition value was observed for O=C(/C=C/c1ccc(O)cc1)c1cc(Cl)ccc1O ?
Result: 96.5

Request: Need growth inhibition of CC1=C(C#N)C(=O)N(C)C(=O)C1(Cl)Cl , thanks.
Result: 5.05

Request: For the compound shown here, CCCCCCCCCCCCNCC(=O)O , give the reported growth inhibition.
Result: 92.2

Request: # get_value(readout='growth inhibition', item= CC(C)c1ccc2c(c1)CCC1C(C)(CN)CCCC21C (centres undefined) )
Result: 99.3

Request: Fill in the blank: the reported growth inhibition of O=[N+]([O-])c1ccc2c(c1)/C(=N/O)c1ccccc1-2 is ____.
Result: 18.8

Request: I would be grateful if you could share the reported growth inhibition for Cc1cc(Cc2ccccc2Cl)ccc1O .
Result: 99.4

Request: // query growth inhibition value for entry CC1C2CC(C(S(=O)(=O)N3CCOCC3)/C2=N\O)C1(C)C (centres undefined)
Result: 89.9

---

Test: NCI Yeast Anticancer Drug Screen. Data for the rad50 strain (AID 155);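 further: 0% = growth of vehicle-only cultures of the same strain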
Conditions: S. cerevisiae rad50 strain growth inhibition; at 5.0 µM (retest, dose inferred, filed as 0.5); hits give high values
Method: Growth inhibition of yeast strains with defined genetic alterations is measured as a screen for potential anti-cancer activity. Selected strains with alterations in DNA damage repair or cell cycle control were exposed to compounds and growth inhibition was measured relative to vehicle treated controls. The strain used in this assay is rad50
About 79,000 compounds went through this panel and 15% of them were active in at least one assay; those are over-represented in the sample as a whole. The source made the active and inactive calls. Rule as the data show it: active = growth inhibition above about 70%; inactive = the rest.
METRIC_NAME: growth inhibition

# count of solved cases: 4
CN(C)CC(C)(CN(C)C)C(=O)/C=C/c1ccc(Cl)c(Cl)c1 ... 27% (inactive)
CC(/C=C/NNC1=NC(c2ccccc2)C(c2ccccc2)=NN1)Sc1ccccc1N (stereo not given) ... 43% (inactive)
O=[N+]([O-])c1ccc(Cl)cc1C(Nc1nncs1)Nc1nncs1 ... 8% (inactive)
O=CC(O)C(O)C(O)C(O)C(=O)NCCCCCCCCCCCCNC(=O)C(O)C(O)C(O)C(O)C=O (stereo not given) ... 19% (inactive)

Request: Given COc1ccc(CN2COc3c(cc(Cl)c4cccnc34)C2)cc1 , state its recorded growth inhibition.
Result: 6% (inactive)

---

The reader will find reported growth inhibition values listed item by item below.
Assay: NCI Yeast Anticancer Drug Screen. Data for the rad50 strain (AID 155);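 further: 0% = growth of vehicle-only cultures of the same strain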
Settings: S. cerevisiae rad50 strain growth inhibition; at 50.0 µM (retest, dose inferred, filed as 5.0); hits give high values
The panel holds about 79,000 compounds, 15% with a hit somewhere; the sample as a whole holds those more often.
Lab book: enter the figure in %, no units written.

For orientation, consider the following solved cases.
Clc1c2ccccc2cc2cccnc12 ... 90
C1=Nc2ccccc2/C1=C/c1ccccc1 ... 22

Request: Field request: growth inhibition | item: CCC(CC)C(=O)O.[Ag]
Result: 99

Request: # lookup: growth inhibition of Cc1cccc2c1CC1(C2)Cc2c(C)cccc2C1=O (configuration not stated)
Result: 87

Request: Quick one: growth inhibition for CC(C)(C)C1=CC(=CC=C2C=CN(CCO)C=C2)C=C(C(C)(C)C)C1=O ?
Result: 98

Request: Consider the compound shown here: Cc1c(-c2ccccc2)sc(/N=C/c2cc(Br)cc(Br)c2O)c1C#N What is its recorded growth inhibition?
Result: 63

Request: Data request, read-out growth inhibition, for O=C(Oc1ccc(Cl)cc1)Oc1ccc(Cl)cc1
Result: 16
